Assay: in vivo
Conditions: female, BALB/c, mouse, po, 10 mg/kg

- smiles: "CC(C)(CO)Cn1nc(-c2ccc3cc(OC4CC4)ccc3c2)c2c(N)ncnc21"
  unit_of_measure: "nM"
  Cmax: 390
- smiles: "Nc1ncnc2c1c(-c1ccc3nc(OC4CC4)ccc3c1)nn2CC1CCOCC1"
  unit_of_measure: "nM"
  Cmax: 880
- smiles: "COc1ccc2cc(-c3nn(CC4CCOCC4)c4ncnc(N)c34)ccc2n1"
  unit_of_measure: "nM"
  Cmax: 3900

----------
Test: in vivo
Conditions: female, BALB/c, mouse, po, 10 mg/kg
parameter: half-life (min)

- smiles: "COc1ccc2cc(-c3nn(CC4CCOCC4)c4ncnc(N)c34)ccc2n1"
  parameter: "half-life"
  unit_of_measure: "min"
  result_number: 41

----------
Experiment: in vivo
Settings: female, BALB/c, mouse, po, 10 mg/kg
Listed here: items and their measured Tmax.

- compound: "Nc1ncnc2c1c(-c1ccc3nc(OC4CC4)ccc3c1)nn2CC1CCOCC1 [Example 22]"
  unit_of_measure: "min"
  Tmax: 30
- compound: "COc1ccc2cc(-c3nn(CC4CCOCC4)c4ncnc(N)c34)ccc2n1 [Example 27]"
  unit_of_measure: "min"
  Tmax: 30

----------
Target: TgCDPK1 (Toxoplasma gondii, UniProt Q9BJF5)
Sequence (Q9BJF5 1-507): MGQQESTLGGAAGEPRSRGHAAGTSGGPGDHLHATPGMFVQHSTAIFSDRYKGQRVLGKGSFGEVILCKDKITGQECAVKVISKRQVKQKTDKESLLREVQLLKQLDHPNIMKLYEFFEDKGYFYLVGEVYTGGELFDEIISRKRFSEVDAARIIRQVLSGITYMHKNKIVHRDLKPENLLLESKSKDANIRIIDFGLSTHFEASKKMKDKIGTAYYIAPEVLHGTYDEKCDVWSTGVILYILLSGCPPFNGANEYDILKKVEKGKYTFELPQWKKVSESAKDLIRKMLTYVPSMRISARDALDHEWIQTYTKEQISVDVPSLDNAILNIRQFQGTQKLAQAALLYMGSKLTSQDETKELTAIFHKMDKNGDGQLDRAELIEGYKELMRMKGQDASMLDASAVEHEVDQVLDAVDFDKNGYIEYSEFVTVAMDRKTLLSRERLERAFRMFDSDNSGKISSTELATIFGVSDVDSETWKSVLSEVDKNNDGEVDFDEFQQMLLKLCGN
Assay: biochemical
# strict inequality: IC50 < 20 nM yields y, everything else yields n

- smiles: "CN1CCC(C#N)(Cn2nc(-c3ccc4cc(OC(F)F)ccc4c3)c3c(N)ncnc32)CC1"
  qualitative_label: "y"
- smiles: "CN1CCC(Cn2nc(-c3ccc4cc(OC5COC5)ccc4c3)c3c(N)ncnc32)CC1"
  qualitative_label: "y"
- smiles: "CC(C)(O)Cn1nc(-c2ccc3nc(OCC(F)(F)F)ccc3c2)c2c(N)ncnc21"
  qualitative_label: "y"
- smiles: "COC(=O)COc1ccc2cc(-c3nn(CC4CCN(C)CC4)c4ncnc(N)c34)ccc2c1"
  qualitative_label: "n"
- smiles: "CN1CC(O)(Cn2nc(-c3ccc4cc(OC5CC5)ccc4c3)c3c(N)ncnc32)C1"
  qualitative_label: "y"
- smiles: "COC(C)(C)Cn1nc(-c2ccc3nc(OC4CC4)ccc3c2)c2c(N)ncnc21"
  qualitative_label: "n"
- smiles: "CN1CCC(O)(Cn2nc(-c3ccc4nc(OC5CC5)ccc4c3)c3c(N)ncnc32)CC1"
  qualitative_label: "n"
- smiles: "Nc1ncnc2c1c(-c1ccc3nc(OCC(F)(F)F)ccc3c1)nn2CC1CCNCC1"
  qualitative_label: "y"

----------
Biological target: TgCDPK1 (Toxoplasma gondii)
Test: biochemical
pIC50: −log10 of the molar value.

- compound: "CCOc1ccc2cc(-c3nn(CC(=O)N4CCOCC4)c4ncnc(N)c34)ccc2c1 [Example 50]"
  system_tested: "TgCDPK1 (Toxoplasma gondii)"
  pIC50: 7.37
- compound: "CC(C)Cn1nc(-c2ccc3cc(OC4CC4)ccc3c2)c2c(N)ncnc21 [Example 9]"
  system_tested: "TgCDPK1 (Toxoplasma gondii)"
  pIC50: 8.22
- compound: "CC(C)(F)Cn1nc(-c2ccc3cc(OC4CC4)ccc3c2)c2c(N)ncnc21 [Example 77]"
  system_tested: "TgCDPK1 (Toxoplasma gondii)"
  pIC50: 8.19
- compound: "Nc1ncnc2c1c(-c1ccc3cc(OC4CC4)ccc3c1)nn2CC1(O)CCOCC1 [Example 63]"
  system_tested: "TgCDPK1 (Toxoplasma gondii)"
  pIC50: 7.89
